molecular target: A2B receptor (Homo sapiens (Human)); assay: Inhibitory activity on A2B receptor, cAMP assay in CHO-K1/ADORA2B/Gα15 cells (Test Example 1); type: cell-based; conditions: NECA 10 nM
Sequence (P29275 whole entry): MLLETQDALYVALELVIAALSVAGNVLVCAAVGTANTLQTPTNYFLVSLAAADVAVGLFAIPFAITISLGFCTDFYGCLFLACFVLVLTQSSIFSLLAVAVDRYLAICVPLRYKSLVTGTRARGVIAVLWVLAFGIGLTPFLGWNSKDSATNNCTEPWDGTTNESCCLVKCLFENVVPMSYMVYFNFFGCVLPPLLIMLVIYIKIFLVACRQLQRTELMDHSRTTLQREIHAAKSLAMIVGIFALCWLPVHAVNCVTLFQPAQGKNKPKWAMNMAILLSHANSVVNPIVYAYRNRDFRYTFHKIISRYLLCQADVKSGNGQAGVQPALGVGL
recorded metric: IC50 (mM)
Write the value in mM as a bare number.

input: Quick check: IC50 of Cc1c(C#N)cccc1-c1nc(N)c(F)c(-c2cn(Cc3cccc(C(C)(C)O)n3)nn2)n1 [Compound X] ?
output: 0.003

====

assay: In vivo pharmacokinetics in mice (LC/MS/MS plasma concentration); conditions: male, ICR, mouse, intravenous (tail vein) 2 mg/kg, read-out: Clearance CLz
Each record here notes measured clearance.
Write the value in mL/min/kg as a bare number.

1. Cc1c(C#N)cccc1-c1nc(N)c(F)c(-c2cn(Cc3cccc(C(C)(C)O)n3)nn2)n1 [Compound X]; 14.7

Could you now consider this next compound?
input: Quick check: clearance of Cc1c(C#N)cccc1-c1cc(-c2cn(Cc3cccc(C(C)(C)O)n3)nn2)nc(N)n1 [Compound D1, reference compound] ?
output: 19

====

Each record here notes measured AUC(0-t).
experiment: In vivo pharmacokinetics in mice (LC/MS/MS plasma concentration); conditions: male, ICR, mouse, po, gavage 10 mg/kg, read-out: Area under the curve AUClast
Write the value in ng·h/mL as a bare number.

1) Cc1c(C#N)cccc1-c1nc(N)c(F)c(-c2cn(Cc3cccc(C(C)(C)O)n3)nn2)n1 [Compound X]; 10400

Could you now consider this next molecule?
input: Quick check: AUC(0-t) of Cc1c(C#N)cccc1-c1cc(-c2cn(Cc3cccc(C(C)(C)O)n3)nn2)nc(N)n1 [Compound D1, reference compound] ?
output: 10300

====

molecular target: UniProt P29274; test: Inhibitory activity on A2A receptor, cAMP assay in CHO-K1/ADORA2A/Gα15 cells (Test Example 1); assay type: cell-based; settings: NECA 50 nM
Sequence (P29274 whole entry): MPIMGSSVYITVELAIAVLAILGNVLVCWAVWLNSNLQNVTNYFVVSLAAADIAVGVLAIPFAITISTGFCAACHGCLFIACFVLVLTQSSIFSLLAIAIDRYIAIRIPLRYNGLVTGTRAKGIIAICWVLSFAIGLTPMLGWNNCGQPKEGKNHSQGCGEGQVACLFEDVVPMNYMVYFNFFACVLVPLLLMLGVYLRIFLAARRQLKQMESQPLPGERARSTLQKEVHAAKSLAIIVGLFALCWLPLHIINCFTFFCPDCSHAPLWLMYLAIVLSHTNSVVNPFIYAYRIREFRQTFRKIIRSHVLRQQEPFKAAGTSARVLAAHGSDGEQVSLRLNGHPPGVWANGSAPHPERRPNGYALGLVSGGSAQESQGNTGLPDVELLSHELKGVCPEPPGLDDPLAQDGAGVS
recorded metric: IC50
Record the result as number plus unit.

input: Query for UniProt P29274: what IC50 does the record show for "Cc1c(C#N)cccc1-c1nc(N)c(F)c(-c2cn(Cc3cccc(C(C)(C)O)n3)nn2)n1" ?
output: 0.001 mM

====

Each record here notes measured AUC(0-t).
experiment: In vivo pharmacokinetics in mice (LC/MS/MS plasma concentration); conditions: male, ICR, mouse, intravenous (tail vein) 2 mg/kg, read-out: Area under the curve AUC0-t
Write the value in ng·h/mL as a bare number.

input: Quick check: AUC(0-t) of Cc1c(C#N)cccc1-c1cc(-c2cn(Cc3cccc(C(C)(C)O)n3)nn2)nc(N)n1 [Compound D1, reference compound] ?
output: 1650

input: Quick check: AUC(0-t) of "Cc1c(C#N)cccc1-c1nc(N)c(F)c(-c2cn(Cc3cccc(C(C)(C)O)n3)nn2)n1" ?
output: 2250

====

test: In vivo pharmacokinetics in mice (LC/MS/MS plasma concentration); settings: male, ICR, mouse, po, gavage 10 mg/kg
Each record here notes measured Cmax.
Write the value in µg/mL as a bare number.

1) Cc1c(C#N)cccc1-c1nc(N)c(F)c(-c2cn(Cc3cccc(C(C)(C)O)n3)nn2)n1 [Compound X]; 8.73

input: Quick check: Cmax of Cc1c(C#N)cccc1-c1cc(-c2cn(Cc3cccc(C(C)(C)O)n3)nn2)nc(N)n1 [Compound D1, reference compound] ?
output: 5.96
